Taken from ChEMBL document CHEMBL4308868.

Sequence of the target: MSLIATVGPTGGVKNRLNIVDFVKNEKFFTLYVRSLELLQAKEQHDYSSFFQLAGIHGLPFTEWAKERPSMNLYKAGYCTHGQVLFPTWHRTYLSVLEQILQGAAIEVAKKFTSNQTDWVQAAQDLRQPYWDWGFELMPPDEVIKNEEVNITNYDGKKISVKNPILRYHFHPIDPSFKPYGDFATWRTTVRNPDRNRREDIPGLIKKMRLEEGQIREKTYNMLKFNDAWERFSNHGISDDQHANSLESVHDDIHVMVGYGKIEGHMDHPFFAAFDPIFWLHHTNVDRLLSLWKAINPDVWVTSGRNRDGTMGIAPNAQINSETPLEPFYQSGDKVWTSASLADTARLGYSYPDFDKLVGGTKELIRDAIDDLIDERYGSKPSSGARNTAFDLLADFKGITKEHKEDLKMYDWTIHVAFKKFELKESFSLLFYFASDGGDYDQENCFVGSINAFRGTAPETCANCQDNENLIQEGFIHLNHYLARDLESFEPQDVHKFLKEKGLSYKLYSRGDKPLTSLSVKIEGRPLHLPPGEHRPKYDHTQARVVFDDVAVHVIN
pIC50: −log10 of the molar value.
quantity-measured: pIC50

Query block: I'd like to know its pIC50. The compound in question is `CCCOC(=O)CCC(=O)c1cc(C)c(OCC)cc1C(C)C`
Result block: 3.66

Query block: Okay, and `CCCCOC(=O)CCC(=O)c1cc(C(C)C)c(OCC)cc1C` ?
Result block: 3.72

Query block: Entry `CCOC(=O)CCC(=O)c1cc(C(C)C)c(OCC)cc1C` please
Result block: 3.67
